meta.source: PubChem BioAssay (NCI)

system: SW-620 colon; experiment: NCI tumour cell line growth inhibition, 48 h
Listed here are compounds together with their documented TGI.

Below are worked cases with known answers.
[[record]]
compound = "C=CCCC1(O)C(O)C(CO)O[C@H](O[C@@]2(CO)OC(CO)C(O)C2O)C1O (stereo not given in full)"
measured_quantity = "TGI"
result = "> 100 µM"

[[record]]
compound = "C[C@]12C=CC(=O)C=C1CC[C@@H]1[C@@H]2CC[C@@]2(C)[C@H]1CC[C@]2(O)C(N)=O"
measured_quantity = "TGI"
result = "> 100 µM"

[[record]]
compound = "O=C1/C(=C/c2ccc(Cl)c(Cl)c2)CN(C(=O)C(Cl)Cl)C/C1=C\\c1ccc(Cl)c(Cl)c1"
measured_quantity = "TGI"
result = "0.196 µM"

[[record]]
compound = "CO/C(N)=C(\\C#N)N=Cc1ccc2ccccc2c1"
measured_quantity = "TGI"
result = "> 100 µM"


Now consider the entry below.
q: # TGI lookup, item COC(=O)c1ccc2c(c1)CC1(C2)Cc2cc3c(cc2C1)CCC3
a: > 100 µM
